Test: Acute toxicity in ICR rat assessed as mortality at 1000 mg/kg, administered intragastrically after 14 days relative to control
Assay type: organism-based
Design: dose 1000 mg/kg, route intragastric
Conditions: in vivo, po, read-out: Activity
Property Name: mortality at 336 h
A complete answer gives the number and then names the unit.

Data request, read-out mortality at 336 h, for CCCC(=O)N(Cc1ccc(-c2ccccc2-c2nc(=O)o[nH]2)cc1)[C@H](C(=O)O)C(C)C 0%

###

Experiment: Acute toxicity in ICR rat assessed as mortality at 5000 mg/kg, administered intragastrically after 14 days relative to control
Type: organism-based
Parameters: dose 5000 mg/kg, route intragastric
Settings: in vivo, po, read-out: Activity
Property Name: mortality at 336 h (%)
Give just the numeric value; % need not be written.

Data request, read-out mortality at 336 h, for CCCC(=O)N(Cc1ccc(-c2ccccc2-c2nc(=O)o[nH]2)cc1)[C@H](C(=O)O)C(C)C 100

###

Test system: Rattus norvegicus
Assay: Antihypertensive activity in rat spontaneous hypertensive model assessed as reduction in diastolic blood pressure at 30 mg/kg, po up to 10 hrs
Format: functional, organism-based
Set-up: dose 30 mg/kg
Details: Artery
Calls of active or inactive are those of the source. No cut-off for these calls is given here.
Mark one answer only. Choices: YES for active, NO for inactive

Outcome logged for CCCC(=O)N(Cc1ccc(-c2ccccc2-c2nc(=O)o[nH]2)cc1)[C@@H](Cc1ccccc1)C(=O)O in this assay: NO

Outcome logged for CCCC(=O)N(Cc1ccc(-c2cc(F)ccc2-c2noc(=O)[nH]2)cc1)[C@H](C(=O)O)C(C)C in this assay: YES

Outcome logged for CCCCC1=NC2(CCCC2)C(=O)N1Cc1ccc(-c2ccccc2-c2nnn[nH]2)cc1 in this assay: YES

Outcome logged for CCCCC(=O)N(Cc1ccc(-c2ccccc2-c2nc(=O)o[nH]2)cc1)[C@@H](CC(C)C)C(=O)O in this assay: NO

Outcome logged for CCCCC(=O)N(Cc1ccc(-c2ccccc2-c2nc(=O)o[nH]2)cc1)[C@@H](Cc1ccccc1)C(=O)O in this assay: NO

###

Tested on: Rattus norvegicus
Test: Antihypertensive activity in rat spontaneous hypertensive model assessed as reduction in systolic blood pressure at 30 mg/kg, po up to 10 hrs
Type: functional, organism-based
Design: dose 30 mg/kg
Details: Artery
The source made the active and inactive calls. The rule behind the calls is not given here.
Mark one answer only. Choices: T = active, F = inactive

Outcome logged for CCCC(=O)N(Cc1ccc(-c2cc(F)ccc2-c2noc(=O)[nH]2)cc1)[C@H](C(=O)O)C(C)C in this assay: T

Outcome logged for CCCC(=O)N(Cc1ccc(-c2ccccc2-c2nc(=O)o[nH]2)cc1)[C@@H](Cc1ccccc1)C(=O)O in this assay: F

Outcome logged for CCCCC(=O)N(Cc1ccc(-c2ccccc2-c2nc(=O)o[nH]2)cc1)[C@@H](CC(C)C)C(=O)O in this assay: F

Outcome logged for CCCCC(=O)N(Cc1ccc(-c2ccccc2-c2nc(=O)o[nH]2)cc1)[C@@H](Cc1ccccc1)C(=O)O in this assay: F

Outcome logged for CCCC(=O)N(Cc1ccc(-c2ccccc2-c2nc(=O)o[nH]2)cc1)[C@H](C(=O)O)C(C)C in this assay: T

Outcome logged for CCC(=O)N(Cc1ccc(-c2ccccc2-c2nc(=O)o[nH]2)cc1)[C@H](C(=O)O)C(C)C in this assay: T

Outcome logged for CCCCC(=O)N(Cc1ccc(-c2ccccc2-c2nc(=O)o[nH]2)cc1)[C@H](C(=O)O)C(C)C in this assay: T

Outcome logged for CCCC(=O)N(Cc1ccc(-c2ccccc2-c2nc(=O)o[nH]2)cc1)[C@@H](CC(C)C)C(=O)O in this assay: T

Outcome logged for CCCCC1=NC2(CCCC2)C(=O)N1Cc1ccc(-c2ccccc2-c2nnn[nH]2)cc1 in this assay: T

###

Experiment: Displacement of [I125]angiotensin2 from AT1 receptor in Sprague-Dawley rat VSMC after 2.5 hrs by gamma spectrophotometry
Response field label takes satisfied when IC50 is strictly below 20 nM and not satisfied in all other cases.

Please determine if CCCCC(=O)N(Cc1ccc(-c2ccccc2-c2nc(=O)o[nH]2)cc1)[C@@H](CC(C)C)C(=O)O is below 20 nM in terms of IC50. satisfied

Please determine if CCCCC(=O)N(Cc1ccc(-c2ccccc2-c2nc(=O)o[nH]2)cc1)[C@@H](Cc1ccccc1)C(=O)O is below 20 nM in terms of IC50. satisfied

Please determine if CCCC(=O)N(Cc1ccc(-c2ccccc2-c2nc(=O)o[nH]2)cc1)[C@@H](Cc1ccccc1)C(=O)O is below 20 nM in terms of IC50. not satisfied

Please determine if CCCC(=O)N(Cc1ccc(-c2ccccc2-c2nc(=O)o[nH]2)cc1)[C@@H](CC(C)C)C(=O)O is below 20 nM in terms of IC50. not satisfied

Please determine if CCCCC1=NC2(CCCC2)C(=O)N1Cc1ccc(-c2ccccc2-c2nnn[nH]2)cc1 is below 20 nM in terms of IC50. satisfied

Please determine if CCC(=O)N(Cc1ccc(-c2ccccc2-c2nc(=O)o[nH]2)cc1)[C@H](C(=O)O)C(C)C is below 20 nM in terms of IC50. satisfied

###

Experiment: Displacement of [I125]angiotensin2 from AT1 receptor in Sprague-Dawley rat VSMC after 2.5 hrs by gamma spectrophotometry
Property Name: pIC50
Please keep in mind that pIC50 is minus log10 of the molar concentration; only the number is needed.

Data request, read-out pIC50, for CCCCC(=O)N(Cc1ccc(-c2ccccc2-c2nnn[nH]2)cc1)[C@H](C(=O)O)C(C)C 8.58

Data request, read-out pIC50, for CCCC(=O)N(Cc1ccc(-c2ccccc2-c2nc(=O)o[nH]2)cc1)[C@H](C(=O)O)C(C)C 9.31

Data request, read-out pIC50, for CCCC(=O)N(Cc1ccc(-c2cc(F)ccc2-c2noc(=O)[nH]2)cc1)[C@H](C(=O)O)C(C)C 7.68

Data request, read-out pIC50, for CCCCC(=O)N(Cc1ccc(-c2ccccc2-c2nc(=O)o[nH]2)cc1)[C@H](C(=O)O)C(C)C 8.01

###

Test system: Rattus norvegicus
Assay: Antihypertensive activity in rat spontaneous hypertensive model assessed as reduction in diastolic blood pressure at 15 mg/kg, po up to 10 hrs
Format: functional, organism-based
Parameters: dose 15 mg/kg
Conditions: Artery
Activity calls are given as the source filed them. No cut-off for these calls is given here.
Property Name: Activity

Solved entries (count: 4):
CCCC(=O)N(Cc1ccc(-c2ccccc2-c2nc(=O)o[nH]2)cc1)[C@H](C(=O)O)C(C)C: Active
CCCCC1=NC2(CCCC2)C(=O)N1Cc1ccc(-c2ccccc2-c2nnn[nH]2)cc1: Active
CCCCC(=O)N(Cc1ccc(-c2ccccc2-c2nc(=O)o[nH]2)cc1)[C@@H](CC(C)C)C(=O)O: inactive
CCCCC(=O)N(Cc1ccc(-c2ccccc2-c2nc(=O)o[nH]2)cc1)[C@H](C(=O)O)C(C)C: Active

Data request, read-out Activity, for CCCC(=O)N(Cc1ccc(-c2ccccc2-c2nc(=O)o[nH]2)cc1)[C@@H](Cc1ccccc1)C(=O)O inactive

###

Test: Acute toxicity in ICR rat assessed as mortality at 1710 mg/kg, administered intragastrically after 14 days relative to control
Format: organism-based
Set-up: dose 1710 mg/kg, route intragastric
Settings: in vivo, po, read-out: Activity
Property Name: mortality at 336 h (%)
Give just the numeric value; % need not be written.

Data request, read-out mortality at 336 h, for CCCC(=O)N(Cc1ccc(-c2ccccc2-c2nc(=O)o[nH]2)cc1)[C@H](C(=O)O)C(C)C 30

###

What Ki was measured for each of the following?
Test: Displacement of [I125]angiotensin2 from AT1 receptor in Sprague-Dawley rat VSMC after 2.5 hrs by gamma spectrophotometry
Give just the numeric value; nM need not be written.

Data request, read-out Ki, for CCCCC(=O)N(Cc1ccc(-c2ccccc2-c2nc(=O)o[nH]2)cc1)[C@H](C(=O)O)C(C)C 6.65

Data request, read-out Ki, for CCCCC(=O)N(Cc1ccc(-c2ccccc2-c2nc(=O)o[nH]2)cc1)[C@@H](CC(C)C)C(=O)O 6.88

Data request, read-out Ki, for CCCC(=O)N(Cc1ccc(-c2ccccc2-c2nc(=O)o[nH]2)cc1)[C@H](C(=O)O)C(C)C 0.33

Data request, read-out Ki, for CCCCC1=NC2(CCCC2)C(=O)N1Cc1ccc(-c2ccccc2-c2nnn[nH]2)cc1 0.41

Data request, read-out Ki, for CCCC(=O)N(Cc1ccc(-c2cc(F)ccc2-c2noc(=O)[nH]2)cc1)[C@H](C(=O)O)C(C)C 14.1

Data request, read-out Ki, for CCCC(=O)N(Cc1ccc(-c2ccccc2-c2nc(=O)o[nH]2)cc1)[C@@H](Cc1ccccc1)C(=O)O 17.9

Data request, read-out Ki, for CCCCC(=O)N(Cc1ccc(-c2ccccc2-c2nc(=O)o[nH]2)cc1)[C@@H](Cc1ccccc1)C(=O)O 12.2

Data request, read-out Ki, for CCCCC(=O)N(Cc1ccc(-c2ccccc2-c2nnn[nH]2)cc1)[C@H](C(=O)O)C(C)C 2.22

Data request, read-out Ki, for CCCC(=O)N(Cc1ccc(-c2ccccc2-c2nc(=O)o[nH]2)cc1)[C@@H](CC(C)C)C(=O)O 24.3

Data request, read-out Ki, for CCC(=O)N(Cc1ccc(-c2ccccc2-c2nc(=O)o[nH]2)cc1)[C@H](C(=O)O)C(C)C 1.03
